Hello, the source for this data is patent US20110028686A1, in case you need it.

Listed next: entries and their corresponding pKd.
Biological target: T1, HisKIX (UniProt P45481 586-672)
T1 construct: range 586-672; the residue numbers fit mouse CBP; also called His-tagged CBP KIX domain; CBP KIX; not shown: amino-terminal hexahistidine tag and linker of pET15b
T1 sequence (P45481 586-672): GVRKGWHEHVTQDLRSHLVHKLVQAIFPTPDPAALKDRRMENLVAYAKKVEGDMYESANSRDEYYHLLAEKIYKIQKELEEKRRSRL
Test: FP, fluorescein-labelled peptide titrated with HisKIX, 25 C
pKd: −log10 of the molar value. Square brackets hold non-standard residues; d marks the D form. Ends that are not written are not given here. pS = N[C@@H](COP(=O)(O)O)C(=O)O
Assay Metric: pKd

binder="RRLSFFYILLDLYLDAPGVC(acetamidofluorescein)-NH2 (also called Peptide C (unphosphorylated)) [peptide C^U]" measured=4.67
binder="GPSQPTYPGDDAPVRRL[pS]FFYILLDLYLDAPGVC(acetamidofluorescein)-NH2 (designed binder, also called PPKID4 (phosphorylated)) [PPKID4^P]" measured=6.29
binder="GISWPTFEGDDAPVRRLSFFYILLDLYLDAPGVC(acetamidofluorescein)-NH2 (designed binder, also called PPKID6 (unphosphorylated)) [PPKID6^U]" measured=5.82
